- TEST DETAILS: CD secondary structure of GOLPH3 proteins (BestSel fits)
- Assay type: physicochemical, human
- ASSAY CONDITIONS: 10 μM, 100 mM NaCl, 50 mM Tris pH 7.4, 1 mM TCEP, 20 °C
- Experimental: Supplemental Material for Theodoropoulou, Nasrallah, et al 2026 Isothermal titration calorimetry […] Circular Dichroism Spectroscopy Circular Dichroism Spectra of GOLPH3 proteins (at 10 μM in 100 mM NaCl, 50 mM Tris pH 7.4 and 1 mM TCEP) were collected with a Chirascan V100 (AppliedPhotophysics), using a 1 mm path length cuvette, at 20 °C, in the 200-260 nm range. Thermal denaturation experiments […] every 1 °C, with a temperature ramp speed of 1 °C/min and an equilibration time of […]
Reported % others by item:

Past entries and their recorded results:
[[record]]
molecule = "GOLPH3-4G: mutant F194G/L195G/L196G/F197G with improved solubility (protein) MTSLTQRSSGLVQRRTEASRNAADKERAAGGGAGSSEDDAQSRRDEQDDDDKGDSKETRLTLMEEVLLLGLKDREGYTSFWNDCISSGLRGCMLIELALRGRLQLEACGMRRKSLLTRKVICKSDAPTGDVLLDEALKHVKETQPPETVQNWIELLSGETWNPLKLHYQLRNVRERLAKNLVEKGVLTTEKQNGGGGDMTTHPLTNNNIKQRLIKKVQEAVLDKWVNDPHRMDRRLLALIYLAHASDVLENAFAPLLDEQYDLATKRVRQLLDLDPEVECLKANTNEVLWAVVAAFTK"
quantity_measured = "% others"
measured_value = "36%"

[[record]]
molecule = "D247R/D258R/D262R: recombinant GOLPH3 triple mutant D247R/D258R/D262R (protein, UniProt Q9H4A6 1-298, looked up, variant D247R D258R D262R) Golgi phosphoprotein 3: MTSLTQRSSGLVQRRTEASRNAADKERAAGGGAGSSEDDAQSRRDEQDDDDKGDSKETRLTLMEEVLLLGLKDREGYTSFWNDCISSGLRGCMLIELALRGRLQLEACGMRRKSLLTRKVICKSDAPTGDVLLDEALKHVKETQPPETVQNWIELLSGETWNPLKLHYQLRNVRERLAKNLVEKGVLTTEKQNFLLFDMTTHPLTNNNIKQRLIKKVQEAVLDKWVNDPHRMDRRLLALIYLAHASRVLENAFAPLLREQYRLATKRVRQLLDLDPEVECLKANTNEVLWAVVAAFTK"
quantity_measured = "% others"
measured_value = "40%"

[[record]]
molecule = "D247A: GOLPH3 mutant D247A; recombinant in biophysics, transfected construct in cells (protein, UniProt Q9H4A6 1-298, looked up, variant D247A) Golgi phosphoprotein 3: MTSLTQRSSGLVQRRTEASRNAADKERAAGGGAGSSEDDAQSRRDEQDDDDKGDSKETRLTLMEEVLLLGLKDREGYTSFWNDCISSGLRGCMLIELALRGRLQLEACGMRRKSLLTRKVICKSDAPTGDVLLDEALKHVKETQPPETVQNWIELLSGETWNPLKLHYQLRNVRERLAKNLVEKGVLTTEKQNFLLFDMTTHPLTNNNIKQRLIKKVQEAVLDKWVNDPHRMDRRLLALIYLAHASAVLENAFAPLLDEQYDLATKRVRQLLDLDPEVECLKANTNEVLWAVVAAFTK"
quantity_measured = "% others"
measured_value = "44%"


We next turn to a different molecule, shown below.
// % others lookup, molecule = D247R: recombinant GOLPH3 mutant D247R (protein, UniProt Q9H4A6 1-298, looked up, variant D247R) Golgi phosphoprotein 3: MTSLTQRSSGLVQRRTEASRNAADKERAAGGGAGSSEDDAQSRRDEQDDDDKGDSKETRLTLMEEVLLLGLKDREGYTSFWNDCISSGLRGCMLIELALRGRLQLEACGMRRKSLLTRKVICKSDAPTGDVLLDEALKHVKETQPPETVQNWIELLSGETWNPLKLHYQLRNVRERLAKNLVEKGVLTTEKQNFLLFDMTTHPLTNNNIKQRLIKKVQEAVLDKWVNDPHRMDRRLLALIYLAHASRVLENAFAPLLDEQYDLATKRVRQLLDLDPEVECLKANTNEVLWAVVAAFTK , result: 52%
